Tested on: SK-N-SH
Experiment: Antiproliferative activity against human SK-N-SH cells assessed as inhibition of cell growth incubated for 48 hrs by MTT assay
Type: functional, cell-based
Measurement name: IC50 (µM)
Numbers only, in µM.

State measured IC50 of the compound COCCSC1=C(C)C(=O)c2ccccc2C1=O with SK-N-SH.
3.45

----------
Tested on: HeLa
Experiment: Cytotoxicity against human HeLa cells incubated for 48 hrs by MTT reagent based spectrophotometric analysis
Type: functional, cell-based
Measurement name: IC50
Give the number first and the unit second.

Please report the measured IC50 for COc1ccc(NC2=CC(=O)c3cc4c(cc3C2=O)CCCC4(C)C)cc1
10 nM
